# System: human PKK mRNA
# Experiment: Antisense inhibition of human PKK mRNA in HepaRG cells, 1,000 nM, MOE/deoxy/cEt oligonucleotides (Example 3)
# Assay type: cell-based
# Measurement parameters: HepaRG cells, electroporation with 1,000 nM antisense oligonucleotide, approx. 24 hours, PKK mRNA by RT-PCR (RTS3454), relative to untreated control cells; Table 26 experiment
Strand notation (5' to 3'): a small letter for the sugar, then the base; units joined by * are phosphorothioate-linked, units joined directly phosphodiester-linked; [ ] holds rarer units or linkages, { } end groups; capitals alone tell only the bases. e = 2'-O-(2-methoxyethyl) (MOE); k = constrained ethyl (cEt); [5mC] = 5-methylcytosine; d = 2'-deoxy (DNA)
The entries below come with measured % inhibition values attached.
The reply should be a number in %, with the unit left off.

548292 (eA*eG*kG*dA*d[5mC]*dA*d[5mC]*dT*dG*dT*dT*dT*d[5mC]*k[5mC]*kA*eG; antisense) [compound 548292]    38

Exam item: Using the record for 548303 (eG*eG*kG*d[5mC]*d[5mC]*d[5mC]*d[5mC]*d[5mC]*dA*dT*dG*dT*d[5mC]*k[5mC]*kA*eT; antisense) [compound 548303] , report its % inhibition.
Marked response: 0

Exam item: Returns the measured % inhibition for the input substance. Input: 548240 (eA*eT*kA*d[5mC]*dT*d[5mC]*dG*d[5mC]*d[5mC]*dT*dT*dT*dG*kT*kG*eA; antisense) [compound 548240]
Marked response: 3

###

# Tested on: human PKK mRNA
# Experiment: Antisense inhibition of human PKK mRNA in HepaRG cells, 1,000 nM, MOE/deoxy/cEt oligonucleotides (Example 3)
# Type: cell-based
# Measurement parameters: HepaRG cells, electroporation with 1,000 nM antisense oligonucleotide, approx. 24 hours, PKK mRNA by RT-PCR (RTS3454), relative to untreated control cells; Table 26 experiment
Strand notation (5' to 3'): a small letter for the sugar, then the base; units joined by * are phosphorothioate-linked, units joined directly phosphodiester-linked; [ ] holds rarer units or linkages, { } end groups; capitals alone tell only the bases. e = 2'-O-(2-methoxyethyl) (MOE); k = constrained ethyl (cEt); [5mC] = 5-methylcytosine; d = 2'-deoxy (DNA)
Measured % inhibition by item
Return type: number; implicit unit %.

Some solved cases for reference:
548298 (eG*eG*kA*d[5mC]*dA*dA*dT*dA*dT*dG*dT*d[5mC]*dT*k[5mC]*k[5mC]*eT; antisense) [compound 548298]    0
548249 (antisense eT*eG*kT*dG*dA*dT*dG*d[5mC]*dG*dA*dT*dT*dT*kT*k[5mC]*e[5mC]) [compound 548249]    22
548267 (antisense eG*eA*k[5mC]*d[5mC]*dT*d[5mC]*d[5mC]*dA*dG*dA*d[5mC]*dT*dA*k[5mC]*kT*eG) [compound 548267]    34
547747 (eT*e[5mC]*kA*d[5mC]*dT*dG*dT*dA*d[5mC]*dT*dA*dG*dT*kT*kT*e[5mC]) [compound 547747]    80
548260 (antisense eA*eG*kG*dA*dG*dT*dT*dT*dG*dT*d[5mC]*dA*dG*kA*kA*e[5mC]) [compound 548260]    28

Exam item: Tell me the measured % inhibition of 548288 (eG*eA*kA*dT*dA*dG*d[5mC]*dA*dA*dG*d[5mC]*dT*d[5mC]*k[5mC]*kA*eA; antisense) [compound 548288] , please.
Marked response: 64

Exam item: Record request: % inhibition value, item 548261 (antisense eT*eT*k[5mC]*dA*dG*dG*dG*dA*dG*dT*dG*dA*dT*kG*kT*e[5mC]) [compound 548261]
Marked response: 36

Exam item: Record request: % inhibition value, item 548270 (antisense e[5mC]*eT*kG*d[5mC]*dT*dG*dG*dT*dT*dT*dT*dA*dG*kA*k[5mC]*e[5mC]) [compound 548270]
Marked response: 28

Exam item: Item 548300 (eG*e[5mC]*k[5mC]*d[5mC]*dA*dT*dG*dG*dT*dG*dA*dA*dT*k[5mC]*kT*eG; antisense) [compound 548300] has what recorded % inhibition?
Marked response: 53

Just for reference, patent US11840686B2 is where these values come from.
